This section presents molecules with their documented IC50 values.
- testedTarget: PI3Kβ (Homo sapiens)
- Construct: purchased Life Technologies (assay run by the vendor)
- Sequence (P42338 whole entry): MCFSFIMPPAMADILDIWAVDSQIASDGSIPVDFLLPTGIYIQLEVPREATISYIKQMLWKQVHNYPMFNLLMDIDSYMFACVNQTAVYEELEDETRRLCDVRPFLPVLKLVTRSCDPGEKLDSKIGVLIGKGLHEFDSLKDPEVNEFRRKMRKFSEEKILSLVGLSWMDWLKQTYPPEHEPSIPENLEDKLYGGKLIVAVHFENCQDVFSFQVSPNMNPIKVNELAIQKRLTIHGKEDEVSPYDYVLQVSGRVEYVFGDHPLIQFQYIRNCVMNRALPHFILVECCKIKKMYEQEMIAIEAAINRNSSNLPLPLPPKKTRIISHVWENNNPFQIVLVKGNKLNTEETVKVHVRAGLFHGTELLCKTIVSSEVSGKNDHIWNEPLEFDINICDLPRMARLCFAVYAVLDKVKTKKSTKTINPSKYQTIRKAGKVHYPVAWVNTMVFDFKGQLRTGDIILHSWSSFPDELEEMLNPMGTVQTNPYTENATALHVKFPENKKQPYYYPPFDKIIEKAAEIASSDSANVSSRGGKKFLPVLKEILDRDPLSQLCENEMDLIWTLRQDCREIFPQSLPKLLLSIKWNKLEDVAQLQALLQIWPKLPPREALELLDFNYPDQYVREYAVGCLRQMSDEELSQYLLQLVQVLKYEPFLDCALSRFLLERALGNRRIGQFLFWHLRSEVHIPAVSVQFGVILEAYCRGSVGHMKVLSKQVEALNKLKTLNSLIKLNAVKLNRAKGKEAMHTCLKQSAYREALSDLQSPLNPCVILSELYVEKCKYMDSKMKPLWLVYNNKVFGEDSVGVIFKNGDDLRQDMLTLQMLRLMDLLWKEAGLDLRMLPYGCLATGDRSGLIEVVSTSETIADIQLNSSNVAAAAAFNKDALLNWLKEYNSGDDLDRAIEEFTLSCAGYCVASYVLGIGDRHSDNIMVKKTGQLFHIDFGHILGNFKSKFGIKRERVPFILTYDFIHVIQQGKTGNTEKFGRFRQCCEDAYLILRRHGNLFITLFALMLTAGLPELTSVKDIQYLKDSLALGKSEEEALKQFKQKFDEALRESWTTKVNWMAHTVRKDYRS
- Sequence (P27986 whole entry partner): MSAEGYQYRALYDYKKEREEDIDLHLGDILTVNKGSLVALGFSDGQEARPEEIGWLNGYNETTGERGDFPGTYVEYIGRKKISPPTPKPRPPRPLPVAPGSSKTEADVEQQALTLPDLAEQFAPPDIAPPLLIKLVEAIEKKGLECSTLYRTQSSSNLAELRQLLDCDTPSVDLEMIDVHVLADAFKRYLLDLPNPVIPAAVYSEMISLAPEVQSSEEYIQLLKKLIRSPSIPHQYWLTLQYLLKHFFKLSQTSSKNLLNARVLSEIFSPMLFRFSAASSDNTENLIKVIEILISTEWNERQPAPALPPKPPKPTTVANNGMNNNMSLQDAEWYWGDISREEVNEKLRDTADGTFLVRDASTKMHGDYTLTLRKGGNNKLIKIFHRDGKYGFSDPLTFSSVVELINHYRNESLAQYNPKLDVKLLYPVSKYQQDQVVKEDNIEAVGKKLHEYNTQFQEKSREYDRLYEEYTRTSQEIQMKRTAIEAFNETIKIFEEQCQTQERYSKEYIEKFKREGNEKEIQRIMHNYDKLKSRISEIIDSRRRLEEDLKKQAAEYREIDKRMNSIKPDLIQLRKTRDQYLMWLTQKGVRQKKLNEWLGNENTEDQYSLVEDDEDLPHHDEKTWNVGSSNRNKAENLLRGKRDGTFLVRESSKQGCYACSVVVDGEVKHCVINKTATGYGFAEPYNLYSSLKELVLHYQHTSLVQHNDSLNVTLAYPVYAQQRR
- testName: PI3K subtype enzyme inhibition
- Format: biochemical
- conditionLabel: mean ± SEM; read-out: PI3K Subtype Inhibition Activity PI3Kβ

- structure: "O=C(NOCCOCCOCCOCCN1CCN(c2nc(N3CCOCC3)nc(-n3c(C(F)F)nc4ccccc43)n2)CC1)c1ccc(F)c(F)c1Nc1ccc(I)cc1F"
  measurementUnits: "nM"
  IC50: 4070
- structure: "O=C(NOCCOCCOCCOCCC(=O)N1CCN(c2nc(N3CCOCC3)nc(-n3c(C(F)F)nc4ccccc43)n2)CC1)c1ccc(F)c(F)c1Nc1ccc(I)cc1F"
  measurementUnits: "nM"
  IC50: 1480
- structure: "FC(F)c1nc2ccccc2n1-c1nc(N2CCNCC2)nc(N2CCOCC2)n1"
  measurementUnits: "nM"
  IC50: 1090

----------
This section presents compounds with their documented IC50 values.
- testedTarget: PI3Kβ (Homo sapiens)
- Construct: purchased Life Technologies (assay run by the vendor)
- testName: PI3K subtype enzyme inhibition
- Assay type: biochemical
- conditionLabel: read-out: PI3Kβ IC50

- structure: "NOCCOCCOCCOCCC(=O)N1CCN(c2cnc3ccc(-c4cnc(Cl)c(NS(=O)(=O)c5ccc(F)cc5)c4)cc3n2)CC1"
  testedTarget: "PI3Kβ (Homo sapiens)"
  IC50, µM: 0.00133
- structure: "CC(=O)N1CCN(c2cnc3ccc(-c4cnc(Cl)c(NS(=O)(=O)c5ccc(F)cc5)c4)cc3n2)CC1"
  testedTarget: "PI3Kβ (Homo sapiens)"
  IC50, µM: 0.00536
- structure: "O=C(NOCCOCCOCCOCCC(=O)N1CCN(c2cnc3ccc(-c4cnc(Cl)c(NS(=O)(=O)c5ccc(F)cc5)c4)cc3n2)CC1)c1ccc(F)c(F)c1Nc1ccc(I)cc1F"
  testedTarget: "PI3Kβ (Homo sapiens)"
  IC50, µM: 0.467
- structure: "O=S(=O)(Nc1cc(-c2ccc3ncc(N4CCNCC4)nc3c2)cnc1Cl)c1ccc(F)cc1"
  testedTarget: "PI3Kβ (Homo sapiens)"
  IC50, µM: 0.477

----------
- testedTarget: PI3Kβ (Homo sapiens)
- Construct: purchased Life Technologies (assay run by the vendor)
- testName: PI3K subtype enzyme inhibition
- Format: biochemical
- conditionLabel: read-out: PI3K Subtype Enzyme Inhibition Data IC50 PI3Kβ
pIC50: −log10 of the molar value.
This section presents compounds with their documented pIC50 values.
observable: pIC50

- structure: "O=C(NOCCOCCOCCOCCC(=O)N1CCN(c2nc(N3CCOCC3)nc(-n3c(C(F)F)nc4ccccc43)n2)CC1)c1ccc(F)c(F)c1Nc1ccc(I)cc1F"
  testedTarget: "PI3Kβ (Homo sapiens)"
  measValue: 5.83
- structure: "CN(CCOCCOCCONC(=O)c1ccc(F)c(F)c1Nc1ccc(I)cc1F)CC[N+](C)(C)CCOCCOCCC(=O)N1CCN(c2nc(N3CCOCC3)nc(-n3c(C(F)F)nc4ccccc43)n2)CC1"
  testedTarget: "PI3Kβ (Homo sapiens)"
  measValue: 5.60
- structure: "CNCCNc1nc(N2CCOCC2)nc(-n2c(C(F)F)nc3ccccc32)n1"
  testedTarget: "PI3Kβ (Homo sapiens)"
  measValue: 5.54
- structure: "OCCNc1nc(N2CCOCC2)nc(-n2c(C(F)F)nc3ccccc32)n1"
  testedTarget: "PI3Kβ (Homo sapiens)"
  measValue: 7.15
